Measured % Inhibition of Blood Platelet Aggregation Induced by Collagen, listed per entry for reference.
- Tested on: blood platelet aggregation
- method_notes: Oral administration to rabbits; inhibition of blood platelet aggregation induced by ADP or collagen in platelet rich plasma (Example 56)
- Type: in vivo
- measurement_context: lowest amount of collagen giving maximal aggregation; rabbit, oral single dose 25 mg./kg.; 24 hrs.
Where a name gives a salt, the structure may show the parent alone.
Hi! Could you send only the number? It should be in %, unit omitted.

Some solved cases for reference:
Ask: Data request, read-out % Inhibition of Blood Platelet Aggregation Induced by Collagen, for CCCC(=N)N/C=C/c1ccc(Cl)c(Cl)c1 [HYDROCHLORIDE]
Result: 0

Ask: Data request, read-out % Inhibition of Blood Platelet Aggregation Induced by Collagen, for CC(C)(C)C(=N)N/C=C/c1ccc(Cl)c(Cl)c1
Result: 0

Ask: Data request, read-out % Inhibition of Blood Platelet Aggregation Induced by Collagen, for N=C(N/C=C/c1ccc(Cl)c(Cl)c1)c1ccccc1 [HYDROCHLORIDE]
Result: 0

Ask: Data request, read-out % Inhibition of Blood Platelet Aggregation Induced by Collagen, for N=C(N/C=C/c1ccc(Cl)c(Cl)c1)C1CC1 [HYDROCHLORIDE]
Result: 15

Consider now this further compound.
Ask: Data request, read-out % Inhibition of Blood Platelet Aggregation Induced by Collagen, for CC(=N)N/C=C/c1ccc(Cl)c(Cl)c1 [HYDROCHLORIDE]
Result: 0

====

Measured % Inhibition of Blood Platelet Aggregation Induced by ADP, listed per entry for reference.
- Test system: blood platelet aggregation
- method_notes: Oral administration to rabbits; inhibition of blood platelet aggregation induced by ADP or collagen in platelet rich plasma (Example 56)
- Type: in vivo
- measurement_context: ADP 0.25-1.0 microgram; rabbit, oral single dose 25 mg./kg.; 1 hr.
Structures can show the parent of a compound that is named as a salt.

Ask: Data request, read-out % Inhibition of Blood Platelet Aggregation Induced by ADP, for CC(C)(C)C(=N)N/C=C/c1ccc(Cl)c(Cl)c1
Result: 60%

Continuing:
Ask: Data request, read-out % Inhibition of Blood Platelet Aggregation Induced by ADP, for N=C(N/C=C/c1ccc(Cl)c(Cl)c1)C1CC1 [HYDROCHLORIDE]
Result: 60%

Ask: Data request, read-out % Inhibition of Blood Platelet Aggregation Induced by ADP, for CCCC(=N)N/C=C/c1ccc(Cl)c(Cl)c1 [HYDROCHLORIDE]
Result: 18%

Ask: Data request, read-out % Inhibition of Blood Platelet Aggregation Induced by ADP, for CC(=N)N/C=C/c1ccc(Cl)c(Cl)c1 [HYDROCHLORIDE]
Result: 50%
